Assay: in vitro
Details: human, Caco-2, Caco-2 (membrane permeability)
*1 amine or outer side, *2 acyl side, *3 side chain or, on linkers, in order; H or OH if unused. Where a SMILES comes first, the peptide text is derived from it. Bridges are numbered along the chain shown (N, C = ends). [ ]: non-standard residue; d: D form. The star is where a group is joined. NMePhe(3-Cl) = CN[C@@H](Cc1cccc(Cl)c1)C(=O)O; X12 = O=C([C@H](CCCC(O)C(F)(F)F)N[*:1])[*:2]; NMeF = CN[C@@H](Cc1ccccc1)C(=O)O; NMeGABA = CN(CCCC(=O)[*:2])[*:1]; NMeI = CC[C@H](C)[C@H](NC)C(=O)O; NMeL = CN[C@@H](CC(C)C)C(=O)O; NMeA = CN[C@@H](C)C(=O)O; Piperidide = C1CCN(*)CC1; NBuGly = CCCCNCC(=O)O; tBu = CC(C)(C)*
Here, each record is paired with measured Papp data.
Please reply with the bare figure in ×10⁻⁶ cm/s and do not write the unit itself.

compound="CCCCN1CC(=O)N(C)[C@@H](CC(C)C)C(=O)N[C@H](C(=O)N2CCCCC2)CC(=O)N(C)[C@@H](C)C(=O)N[C@@H](CCCC(O)C(F)(F)F)C(=O)N(C)[C@@H](CC(C)C)C(=O)N(C)[C@@H](Cc2ccccc2)C(=O)N[C@@H](CC(C)C)C(=O)N(C)[C@@H](Cc2ccccc2)C(=O)N(C)[C@@H]([C@@H](C)CC)C(=O)N[C@@H]([C@@H](C)O)C1=O (stereo partly drawn) [Compound D04] ([NMeA][X12][NMeL][NMeF]L[NMeF][NMeI]T[NBuGly][NMeL]D-Piperidide; lactam N-11)" unitofmeasure="×10⁻⁶ cm/s" measvalue=0.2

Consider the record given below.
response.value for CC(C)C[C@H]1C(=O)N[C@@H](CCCC(O)C(F)(F)F)C(=O)N(C)[C@@H](Cc2cccc(Cl)c2)C(=O)N(C)[C@@H](Cc2ccccc2)C(=O)N[C@@H](COC(C)(C)C)C(=O)N(C)[C@@H](CC(C)C)C(=O)N[C@@H]([C@@H](C)O)C(=O)N(C)[C@@H](CC(C)C)C(=O)N(C)[C@@H](CC(C)C)C(=O)N[C@H](C(=O)N2CCCCC2)CC(=O)N(C)CCCC(=O)N1C (stereo partly drawn) [Compound D02] ([NMeGABA][NMeL][X12][NMePhe(3-Cl)][NMeF]S(tBu)[NMeL]T[NMeL][NMeL]D-Piperidide; lactam N-11) (field: Papp) = 0.14

====

Test: in vitro
Details: human, Caco-2, Caco-2
Where a SMILES comes first, the peptide text is derived from it. Bridges are numbered along the chain shown (N, C = ends). [ ]: non-standard residue; d: D form. The star is where a group is joined. Glu(NHSO2Me) = CS(=O)(=O)NC(=O)CC[C@H](N)C(=O)O; NMePhe(3-Cl) = CN[C@@H](Cc1cccc(Cl)c1)C(=O)O; NMeL = CN[C@@H](CC(C)C)C(=O)O; NMeV = CN[C@H](C(=O)O)C(C)C; Piperidide = C1CCN(*)CC1; NBuGly = CCCCNCC(=O)O
assayMetric: Papp (×10⁻⁶ cm/s)
Report as a plain number; the unit ×10⁻⁶ cm/s is understood.

Papp reading for CCCCN1CC(=O)N(C)[C@@H](CC(C)C)C(=O)N[C@@H](CCC(=O)NS(C)(=O)=O)C(=O)N(C)[C@@H](Cc2cccc(Cl)c2)C(=O)N(C)[C@@H](C(C)C)C(=O)N[C@H](C(=O)N2CCCCC2)CC(=O)N[C@H](CC(C)C)C(=O)N(C)[C@@H](Cc2cccc(Cl)c2)C(=O)N[C@@H](CC(C)C)C(=O)N(C)[C@@H](CC(C)C)C(=O)N[C@@H]([C@@H](C)O)C1=O [pd60] ([dL][NMePhe(3-Cl)]L[NMeL]T[NBuGly][NMeL][Glu(NHSO2Me)][NMePhe(3-Cl)][NMeV]D-Piperidide; lactam N-11) : 0.01
